So I've got Ki readings for Cannabinoid receptor 1 (Homo sapiens), take a look.
Quantity: Ki (nM)

• CCCCCCC(C)(C)c1cc(OC)c2cc(Cc3ccccc3OC)c(=O)oc2c1 = 1020
• CCCCCc1cc(OC)c2cc(Cc3cccc(C)c3)c(=O)oc2c1 = 713

###

So I've got Ki readings for Cannabinoid receptor 1 (Homo sapiens), take a look.
Quantity: Ki

* COc1cccc(Cc2cc3c(OC)cc(Br)cc3oc2=O)c1 | > 10 µM
* COc1cccc(Cc2cc3c(OC)cc(CO)cc3oc2=O)c1 | > 10 µM
* COc1cccc(Cc2cc3c(OC)cc(CO[Si](c4ccccc4)(c4ccccc4)C(C)(C)C)cc3oc2=O)c1 | > 10 µM

Reference source: ChEMBL document CHEMBL2176868
